// provenance: patent US20170355757A1

# system.under.test: T1, Human C5 (human, UniProt P01031 19-1676)
# T1 construct: The natural protein has a beta and an alpha chain; also called complement factor 5; complement component 5
# measurement.notes: SPR, mAb captured by anti-hFc, 25C
assay.metric: t½ (min)
Please give a number only; it is taken to be in min.

Reference set (3 entries):
Please look up its t½: H4H12166P8 (antibody, human IgG4, V domains shown, human IgG4 Fc with S108P hinge mutation) VH: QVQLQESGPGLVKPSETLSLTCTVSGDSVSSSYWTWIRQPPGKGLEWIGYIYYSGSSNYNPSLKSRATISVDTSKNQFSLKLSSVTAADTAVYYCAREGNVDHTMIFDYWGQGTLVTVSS VL: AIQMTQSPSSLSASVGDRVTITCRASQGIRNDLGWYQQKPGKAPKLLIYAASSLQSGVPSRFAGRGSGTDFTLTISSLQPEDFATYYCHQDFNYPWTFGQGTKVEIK
17

Please look up its t½: H4H12171P (antibody, human IgG4, V domains shown) VH: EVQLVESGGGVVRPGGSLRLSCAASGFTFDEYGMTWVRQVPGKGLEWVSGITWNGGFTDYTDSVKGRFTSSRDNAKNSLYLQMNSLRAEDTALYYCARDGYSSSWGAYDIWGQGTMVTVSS VL: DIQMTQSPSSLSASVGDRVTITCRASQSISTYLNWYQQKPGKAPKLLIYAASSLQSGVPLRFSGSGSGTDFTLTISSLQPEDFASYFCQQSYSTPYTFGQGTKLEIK
142

Please look up its t½: H4H12166P9 (antibody, human IgG4, V domains shown, human IgG4 Fc with S108P hinge mutation) VH: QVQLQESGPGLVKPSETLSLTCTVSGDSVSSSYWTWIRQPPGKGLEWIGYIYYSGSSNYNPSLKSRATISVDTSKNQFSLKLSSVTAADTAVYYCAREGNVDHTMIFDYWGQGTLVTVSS VL: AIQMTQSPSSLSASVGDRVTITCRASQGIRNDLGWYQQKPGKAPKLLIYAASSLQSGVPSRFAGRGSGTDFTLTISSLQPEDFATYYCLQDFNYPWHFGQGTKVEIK
44

---
Please look up its t½: H4H12169P (antibody, human IgG4, V domains shown) VH: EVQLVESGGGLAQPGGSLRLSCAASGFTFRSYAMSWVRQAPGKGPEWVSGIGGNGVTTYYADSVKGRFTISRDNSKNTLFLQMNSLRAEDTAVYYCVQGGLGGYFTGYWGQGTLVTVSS VL: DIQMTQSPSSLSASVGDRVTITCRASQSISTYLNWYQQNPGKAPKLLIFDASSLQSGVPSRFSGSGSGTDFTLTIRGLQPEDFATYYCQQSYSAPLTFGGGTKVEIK
26

Please look up its t½: H4H12170P (antibody, human IgG4, V domains shown) VH: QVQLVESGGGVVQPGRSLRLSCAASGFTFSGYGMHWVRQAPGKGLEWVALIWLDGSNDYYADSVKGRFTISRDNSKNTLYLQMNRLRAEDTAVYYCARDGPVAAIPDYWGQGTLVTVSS VL: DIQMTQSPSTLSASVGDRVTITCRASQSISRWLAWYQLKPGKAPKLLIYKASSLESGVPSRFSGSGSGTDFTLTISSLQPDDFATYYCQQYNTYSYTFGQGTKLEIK
170
